# TARGET OF ASSAY: MYC (Homo sapiens)
# Construct: endogenous in cells; host or cells: PC3 cells
# Sequence (P01106 whole entry): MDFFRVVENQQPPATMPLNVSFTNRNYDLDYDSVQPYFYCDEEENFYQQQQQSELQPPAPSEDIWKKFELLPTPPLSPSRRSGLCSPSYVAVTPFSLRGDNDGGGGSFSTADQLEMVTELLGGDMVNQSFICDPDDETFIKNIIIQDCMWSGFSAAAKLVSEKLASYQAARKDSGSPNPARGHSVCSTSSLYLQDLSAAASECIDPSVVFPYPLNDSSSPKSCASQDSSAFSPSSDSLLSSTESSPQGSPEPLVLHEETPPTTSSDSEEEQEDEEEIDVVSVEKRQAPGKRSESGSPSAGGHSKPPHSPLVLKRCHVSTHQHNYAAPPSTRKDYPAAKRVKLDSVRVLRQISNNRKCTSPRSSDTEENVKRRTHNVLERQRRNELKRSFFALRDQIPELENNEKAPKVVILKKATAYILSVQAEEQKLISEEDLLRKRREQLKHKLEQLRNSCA
# ASSAY DETAILS: MYC protein level in PC3 cells by western blot, 24 hr
# Format: cell-based
# PROTOCOL CONDITIONS: PC-3, 24 h, PC3, 24 h, Actin control, read-out: Relative MYC protein at 10 μM (%, PC3 24 h)
MEASURE NAME: remaining activity at 10 µM (%)

a. Cn1nc(C(F)(F)F)cc1-c1ccc(OCCCOCCC(=O)NCCOCCOCCNc2cccc3c2C(=O)N(C2CCC(=O)NC2=O)C3=O)c(-c2ccc(Cl)c(C(F)(F)F)c2)c1O (stereo not drawn) [NUCC-0226304]
b. Cc1ccc(C2(Oc3ccc(-c4cc(C(F)(F)F)nn4C)c(O)c3-c3ccc(Cl)c(C(F)(F)F)c3)CC2)cc1 [NUCC-0226495]
c. Cn1nc(C#N)cc1-c1cc(Cl)c(COc2ccc(Cl)cc2)c(-c2ccc(Cl)c(C(F)(F)F)c2)c1O [NUCC-0227065]
Order the records by remaining activity at 10 µM, with each subsequent value no larger than the one before. Output spec: labels arranged per the requested ranking.
a, c, b

1. Cn1nc(C(F)(F)F)cc1-c1ccc(OCc2ccc(Cl)cc2)c(-c2ccc(Cl)cc2F)c1O [NUCC-0226497]
2. Cn1nc(C(F)(F)F)cc1-c1ccc(OCc2ccc(Cl)cc2)c(-c2ccc(Cl)c(C#N)c2)c1O [NUCC-0226499]
3. Cc1ncsc1-c1ccc(CNC(=O)[C@@H]2C[C@H](O)CN2C(=O)[C@H](NC(=O)COCCNC(=O)CCOCCCN(C(=O)c2ccc(Cl)c(C(F)(F)F)c2)c2ccc(-c3cc(C(F)(F)F)nn3C)c(O)c2)C(C)(C)C)cc1 [NUCC-0226291]
4. Cc1ncsc1-c1ccc(CNC(=O)[C@@H]2C[C@@H](O)CN2C(=O)[C@@H](NCCOCCNC(=O)CCOCCCOc2ccc(-c3cc(C(F)(F)F)nn3C)c(O)c2-c2ccc(Cl)c(C(F)(F)F)c2)C(C)(C)C)cc1 [NUCC-0226303]
Could you please sort these 4 entries by remaining activity at 10 µM from high to low? Output spec: labels arranged per the requested ranking.
1, 3, 2, 4

I. Cc1ncsc1-c1ccc(CNC(=O)[C@@H]2C[C@@H](O)CN2C(=O)[C@@H](NC(=O)C2(F)CC2)C(C)(C)C)c(OCCOCCOCCOCCCCCOc2ccc(-c3cc(C(F)(F)F)nn3C)c(O)c2-c2ccc(Cl)c(C(F)(F)F)c2)c1 [NUCC-0226220]
II. Cn1nc(C(F)(F)F)c(Cl)c1-c1cc(Cl)c(Oc2ccc(Cl)cc2)c(-c2ccc(Cl)c(C(F)(F)F)c2)c1O [NUCC-0227246]
III. C[C@H](Oc1ccc(-c2cc(C(F)(F)F)nn2C)c(O)c1-c1ccc(Cl)c(C(F)(F)F)c1)c1ccccc1 [NUCC-0226434]
Hey, can you sort those molecules up there by remaining activity at 10 µM, smallest first? Output spec: labels arranged per the requested ranking.
III, II, I

a. CC(=O)Oc1c(-c2cc(C(F)(F)F)nn2C)ccc(OCc2ccc(OCCOCCOS(=O)(=O)c3ccc(C)cc3)cc2)c1-c1ccc(Cl)c(C(F)(F)F)c1 [NUCC-0226263]
b. Cn1nc(C(F)(F)F)cc1-c1ccc(OCc2ccc(Cl)cc2)c(-c2cccc(F)c2)c1O [NUCC-0226498]
Of a and b , whose reported remaining activity at 10 µM is numerically smaller? Lab note: record the label of whichever item you select.
b
(b: 67.8%, a: 113%)

a. Cn1nc(C(F)(F)F)cc1-c1ccc(CCc2ccc(Cl)cc2)c(-c2ccc(Cl)c(C(F)(F)F)c2)c1O [NUCC-0226574]
b. Cn1nc(C(F)(F)F)cc1-c1ccc(NC(c2ccccc2)c2ccccc2)c(-c2ccc(Cl)c(C(F)(F)F)c2)c1O [NUCC-0226502]
c. Cn1nc(C(F)(F)F)cc1-c1ccc(N(CC23CC4CC(CC(C4)C2)C3)C(=O)c2ccc(Cl)c(C(F)(F)F)c2)cc1O [NUCC-0226225]
d. Cn1nc(C(F)(F)F)cc1-c1ccc(OCc2ccc(OCCOCCNC(=O)COc3cccc4c3C(=O)N(C3CCC(=O)NC3=O)C4=O)cc2)c(-c2ccc(Cl)c(C(F)(F)F)c2)c1O (stereo not drawn) [NUCC-0226302]
Could you please sort these 4 entries by remaining activity at 10 µM from high to low? Output spec: labels arranged per the requested ranking.
b, d, a, c

a. Cn1nc(C(F)(F)F)c(Cl)c1-c1ccc(COc2ccc(Cl)cc2Cl)c(-c2ccc(Cl)c(C(F)(F)F)c2)c1O [NUCC-0227064]
b. Cc1ncsc1-c1ccc(CNC(=O)[C@@H]2C[C@@H](O)CN2C(=O)[C@@H](NC(=O)C2(F)CC2)C(C)(C)C)c(OCCOCCOc2ccc(COc3ccc(-c4cc(C(F)(F)F)nn4C)c(O)c3-c3ccc(Cl)c(C(F)(F)F)c3)cc2)c1 [NUCC-0226277]
Of a and b , whose reported remaining activity at 10 µM is numerically smaller? Lab note: record the label of whichever item you select.
a
(a: 42%, b: 97.6%)
